System: unidentified
assay overview: Stabilization of HSP90a promoter sequence 5'-FAM-d(GGGCCAAAGGGAAGGGGTGGG)-TAMRA-3' (unknown origin) assessed as melting temperature at 1 uM by FRET assay
metric name: ΔTm (°C)

Input: Entry under review: CN1CCN(CCCNc2cc3c4c(c(NCCCN5CCN(C)CC5)cc5c4c2C(=O)N(CC2CCOCC2)C5=O)C(=O)N(CC2CCOCC2)C3=O)CC1 . Reported ΔTm?
Output: 0.7

Input: Entry under review: CN1CCN(CCNc2cc3c4c(c(NCCN5CCN(C)CC5)cc5c4c2C(=O)N(CCCN2CCOCC2)C5=O)C(=O)N(CCCN2CCOCC2)C3=O)CC1 . Reported ΔTm?
Output: 31.9

Input: Entry under review: CN1CCN(CCNc2cc3c4c(c(NCCN5CCN(C)CC5)cc5c4c2C(=O)N(CCN2CCOCC2)C5=O)C(=O)N(CCN2CCOCC2)C3=O)CC1 . Reported ΔTm?
Output: 30.6

A = CN1CCN(CCCNc2cc3c4c(c(NCCCN5CCN(C)CC5)cc5c4c2C(=O)N(Cc2ccco2)C5=O)C(=O)N(Cc2ccco2)C3=O)CC1
B = CN1CCN(CCCNc2cc3c4c(c(NCCCN5CCN(C)CC5)cc5c4c2C(=O)N(CCN2CCOCC2)C5=O)C(=O)N(CCN2CCOCC2)C3=O)CC1
Input: Hey, which is lower on measured ΔTm, A or B ? Write the label of whichever entry you select.
Output: A

----------
Test system: unidentified
assay overview: Stabilization of HSP90b promoter sequence 5'-FAM-d(GGGCGGGCCAAAGGGAAGGGG)-TAMRA-3' (unknown origin) assessed as melting temperature at 1 uM by FRET assay
metric name: ΔTm (°C)

Input: Entry under review: CN1CCN(CCCNc2cc3c4c(c(NCCCN5CCN(C)CC5)cc5c4c2C(=O)N(CCCN2CCN(C)CC2)C5=O)C(=O)N(CCCN2CCN(C)CC2)C3=O)CC1 . Reported ΔTm?
Output: 32

Input: Entry under review: CN1CCN(CCNc2cc3c4c(c(NCCN5CCN(C)CC5)cc5c4c2C(=O)N(CCN2CCOCC2)C5=O)C(=O)N(CCN2CCOCC2)C3=O)CC1 . Reported ΔTm?
Output: 27.6

Input: Entry under review: CN1CCN(CCCNc2cc3c4c(c(NCCCN5CCN(C)CC5)cc5c4c2C(=O)N(CCCN2CCOCC2)C5=O)C(=O)N(CCCN2CCOCC2)C3=O)CC1 . Reported ΔTm?
Output: 28.6

----------
System: unidentified
assay overview: Stabilization of duplex DNA T-loop (unknown origin) 5'-FAM-dTATAGCTATA-HEG-TATAGCTATA-TAMRA-3' assessed as melting temperature at 1 uM by FRET assay
metric name: ΔTm (°C)

Input: Entry under review: CN1CCN(CCNc2cc3c4c(c(NCCN5CCN(C)CC5)cc5c4c2C(=O)N(CCN2CCOCC2)C5=O)C(=O)N(CCN2CCOCC2)C3=O)CC1 . Reported ΔTm?
Output: 1.7

1 = CN1CCN(CCCNc2cc3c4c(c(NCCCN5CCN(C)CC5)cc5c4c2C(=O)N(CCCN2CCN(C)CC2)C5=O)C(=O)N(CCCN2CCN(C)CC2)C3=O)CC1
2 = CN1CCN(CCCNc2cc3c4c(c(NCCCN5CCN(C)CC5)cc5c4c2C(=O)N(CC2CCCO2)C5=O)C(=O)N(CC2CCCO2)C3=O)CC1 (racemic)
Input: Between 1 and 2 , which one shows the larger ΔTm value? Write the label of whichever entry you select.
Output: 1

----------
Species: Homo sapiens
assay overview: Stabilization of human telomeric G-quadruplex DNA sequence 5'-FAM-d(GGG[TTAGGG]3)-TAMRA-3' assessed as melting temperature at 1 uM by FRET assay
metric name: ΔTm (°C)

Answered cases to consult:
Input: Entry under review: CN1CCN(CCCNc2cc3c4c(c(NCCCN5CCN(C)CC5)cc5c4c2C(=O)N(CC2CCCO2)C5=O)C(=O)N(CC2CCCO2)C3=O)CC1 (racemic) . Reported ΔTm?
Output: 22.7

Input: Entry under review: CN1CCN(CCNc2cc3c4c(c(NCCN5CCN(C)CC5)cc5c4c2C(=O)N(CCCN2CCOCC2)C5=O)C(=O)N(CCCN2CCOCC2)C3=O)CC1 . Reported ΔTm?
Output: 27.8

Input: Entry under review: CN1CCN(CCCNc2cc3c4c(c(NCCCN5CCN(C)CC5)cc5c4c2C(=O)N(Cc2ccco2)C5=O)C(=O)N(Cc2ccco2)C3=O)CC1 . Reported ΔTm?
Output: 0.2

Input: Entry under review: CN1CCN(CCCNc2cc3c4c(c(NCCCN5CCN(C)CC5)cc5c4c2C(=O)N(CCCN2CCN(C)CC2)C5=O)C(=O)N(CCCN2CCN(C)CC2)C3=O)CC1 . Reported ΔTm?
Output: 28.3

A = COCCCN1C(=O)c2cc(NCCCN3CCN(C)CC3)c3c4c(cc(NCCCN5CCN(C)CC5)c(c24)C1=O)C(=O)N(CCCOC)C3=O
B = CN1CCN(CCCNc2cc3c4c(c(NCCCN5CCN(C)CC5)cc5c4c2C(=O)N(CCCN2CCOCC2)C5=O)C(=O)N(CCCN2CCOCC2)C3=O)CC1
Input: Between A and B , which one shows the larger ΔTm value? Write the label of whichever entry you select.
Output: B

----------
Test system: MIA PaCa-2
assay overview: Cytotoxicity against human MIAPaCa2 cells assessed as growth inhibition after 96 hrs by SRB assay
Assay type: functional, cell-based
experimental setup: MIA PaCa-2, 96 h
Collected pIC50 values appear next to each entry.
Quick note: pIC50 means taking -log10 of the concentration in moles per liter.

Answered cases to consult:
Input: Entry under review: CN1CCN(CCCNc2cc3c4c(c(NCCCN5CCN(C)CC5)cc5c4c2C(=O)N(CC2CCCO2)C5=O)C(=O)N(CC2CCCO2)C3=O)CC1 (racemic) . Reported pIC50?
Output: 5.25

Input: Entry under review: CN1CCN(CCCNc2cc3c4c(c(NCCCN5CCN(C)CC5)cc5c4c2C(=O)N(Cc2ccco2)C5=O)C(=O)N(Cc2ccco2)C3=O)CC1 . Reported pIC50?
Output: 5.55

Input: Entry under review: COCCCN1C(=O)c2cc(NCCCN3CCN(C)CC3)c3c4c(cc(NCCCN5CCN(C)CC5)c(c24)C1=O)C(=O)N(CCCOC)C3=O . Reported pIC50?
Output: 5.55

Further cases:
Input: Entry under review: CN1CCN(CCCNc2cc3c4c(c(NCCCN5CCN(C)CC5)cc5c4c2C(=O)N(CC2CCOCC2)C5=O)C(=O)N(CC2CCOCC2)C3=O)CC1 . Reported pIC50?
Output: 5.60

Input: Entry under review: CN1CCN(CCCNc2cc3c4c(c(NCCCN5CCN(C)CC5)cc5c4c2C(=O)N(CCN2CCOCC2)C5=O)C(=O)N(CCN2CCOCC2)C3=O)CC1 . Reported pIC50?
Output: 7.40

Input: Entry under review: CN1CCN(CCNc2cc3c4c(c(NCCN5CCN(C)CC5)cc5c4c2C(=O)N(CCCN2CCOCC2)C5=O)C(=O)N(CCCN2CCOCC2)C3=O)CC1 . Reported pIC50?
Output: 8.00

Input: Entry under review: CN1CCN(CCCNc2cc3c4c(c(NCCCN5CCN(C)CC5)cc5c4c2C(=O)N(CCCN2CCOCC2)C5=O)C(=O)N(CCCN2CCOCC2)C3=O)CC1 . Reported pIC50?
Output: 8.00

----------
Test system: unidentified
assay overview: Stabilization of HSP90b promoter sequence 5'-FAM-d(GGGCGGGCCAAAGGGAAGGGG)-TAMRA-3' (unknown origin) assessed as melting temperature at 1 uM by FRET assay
metric name: ΔTm (°C)

Input: Entry under review: CN1CCN(CCCNc2cc3c4c(c(NCCCN5CCN(C)CC5)cc5c4c2C(=O)N(CC2CCCO2)C5=O)C(=O)N(CC2CCCO2)C3=O)CC1 (racemic) . Reported ΔTm?
Output: 21

Input: Entry under review: CN1CCN(CCNc2cc3c4c(c(NCCN5CCN(C)CC5)cc5c4c2C(=O)N(CCCN2CCOCC2)C5=O)C(=O)N(CCCN2CCOCC2)C3=O)CC1 . Reported ΔTm?
Output: 31.1

P = CN1CCN(CCCNc2cc3c4c(c(NCCCN5CCN(C)CC5)cc5c4c2C(=O)N(CC2CCOCC2)C5=O)C(=O)N(CC2CCOCC2)C3=O)CC1
Q = COCCCN1C(=O)c2cc(NCCCN3CCN(C)CC3)c3c4c(cc(NCCCN5CCN(C)CC5)c(c24)C1=O)C(=O)N(CCCOC)C3=O
Input: Between P and Q , which one shows the larger ΔTm value? Write the label of whichever entry you select.
Output: Q

A = CN1CCN(CCCNc2cc3c4c(c(NCCCN5CCN(C)CC5)cc5c4c2C(=O)N(Cc2ccco2)C5=O)C(=O)N(Cc2ccco2)C3=O)CC1
B = CN1CCN(CCCNc2cc3c4c(c(NCCCN5CCN(C)CC5)cc5c4c2C(=O)N(CCN2CCOCC2)C5=O)C(=O)N(CCN2CCOCC2)C3=O)CC1
Input: Between A and B , which one shows the larger ΔTm value? Write the label of whichever entry you select.
Output: B

Source of measurements: ChEMBL document CHEMBL2331400
